Source of measurements: patent US11639350B2

System: HBV
Test: HBV inhibitory activity: HBV DNA in the culture medium of HepG2.2.15 cells by q-PCR
Type: cell-based
Conditions: HepG2.2.15 cells, 6 days of compound treatment, HBV DNA in culture medium by q-PCR, highest concentration 10 μM; read-out: EC50
pEC50: −log10 of the molar value.
pEC50 vs 7: at or above is satisfied, below is not satisfied.

Sample answers from the record:
1) CCOC(=O)C1=C([C@H]2CC[C@H](C(=O)O)CO2)NC(c2nccs2)=NC1c1ccc(F)cc1Cl (single isomer, unassigned) [Compound 363H] ... not satisfied
2) CCOC(=O)C1=C([C@H]2CCC[C@H](C(=O)O)CC2)NC(c2nccs2)=NC1c1ccc(F)c(F)c1Cl (single isomer, unassigned) [Compound 302F] ... satisfied
3) CCOC(=O)C1=C(C2CCN(S(=O)(=O)C3CC(C)(C(=O)O)C3)CC2)NC(c2nccs2)=NC1c1cccc(F)c1C (single isomer, unassigned) [Compound 429D] ... satisfied

# check: pEC50 of COC(=O)C1=C(C2CCN(S(C)(=N)=O)CC2)NC(c2nccs2)=NC1c1ccc(F)c(F)c1Cl (stereo not drawn) [Compound 205B] is greater than or equal to 7
not satisfied

# check: pEC50 of COC(=O)C1=C(C2CCN(S(=O)(=O)CC3(C)CCC(C(=O)O)CC3)CC2)NC(c2nccs2)=NC1c1ccc(F)cc1Cl (single isomer, unassigned) [Compound 450B] is greater than or equal to 7
satisfied

# check: pEC50 of COC(=O)C1=C(C2CCN(S(C)(=O)=O)CC2)NC(c2nccs2)=NC1c1ccc(F)cc1Br (single isomer, unassigned) [Compound 120A] is greater than or equal to 7
not satisfied

====

Assay: Cytotoxicity determination in HepG2.2.15 cells (CCK-8)
Assay type: cell-based
Conditions: human, 6 days of compound treatment, CCK-8, highest concentration 100 μM
Description: HBV replication inhibition by the compounds of this invention as well as cytotoxicity determination was determined in cells infected or transfected with HBV, or cells with stably integrated HBV, such as HepG2.2.15 cells (Sells et al. 1987). The method used herein is as follows. […] EC50 and CC50 values are calculated by the GraphPad Prism software and are averages where multiple measurements were made. […]
Kindly supply the reported log10 of CC50 at 6 days values for the records listed here.
Please note: log10 values; quantity CC50 at 6 days; unit µM.

Check out these entries, answers already filled in.
1. COC(=O)C1=C(C2CNC(=O)C2)NC(c2nccs2)=NC1c1cccc(F)c1Cl (stereo not shown) [Compound 284] ... 1.32
2. COC(=O)C1=C([C@H]2CC[C@@H](N(CC(=O)O)S(C)(=O)=O)CC2)NC(c2nccs2)=NC1c1ccc(F)cc1Cl (relative stereo) [Compound 135] ... 1.80
3. COC(=O)CCS(=O)(=O)N1CCC(C2=C(C(=O)OC)C(c3cccc(F)c3Cl)N=C(c3nccs3)N2)CC1 (single isomer, unassigned) [Compound 113Y] ... 1.07
4. COC(=O)C1=C([C@H]2CC[C@H](N(CCCO)S(C)(=O)=O)CC2)NC(c2nccs2)=NC1c1ccc(F)cc1Cl (single isomer, unassigned) [Compound 431B] ... 1.45
5. COC(=O)C1=C(C2CCN(S(=O)(=O)[C@H]3C[C@H](C(=O)O)C3)CC2)NC(c2nccs2)=NC1c1ccc(F)c(F)c1Cl (single isomer, unassigned) [Compound 232B] ... 1.78

Could you tell me log10 of CC50 at 6 days for each of these compounds? They are listed below.
1. COC(=O)C1=C(C2CCNC(=O)C2)NC(c2nccs2)=NC1c1ccc(F)cc1Cl (stereo not shown) [Compound 3]
2. COC(=O)C1=C(C2CCN(S(=O)(=O)C3CN(CCOC(C)(C)C)C3)CC2)NC(c2nccs2)=NC1c1ccc(F)c(F)c1Cl (stereo not shown) [Compound 248]
3. COC(=O)C1=C([C@H]2CC[C@H](C(=O)OC)CC2)NC(c2nccs2)=NC1c1ccc(F)cc1Br (relative stereo) [Compound 224]
4. COC(=O)C1=C(C23CC(NS(C)(=O)=O)(C2)C3)NC(c2nccs2)=NC1c1ccc(F)c(F)c1Cl (stereo not shown) [Compound 204A]
5. CCOC(=O)C1=C([C@H]2CC[C@H](C(=O)O)CC2)NC(c2nccs2)=NC1c1ccc(F)c(F)c1Br (stereo partly shown) [Compound 347B]
6. CCOC(=O)C1=C(C2CCN(S(=O)(=O)[C@H]3C[C@@H](C(=O)O)C3)CC2)NC(c2nccs2)=NC1c1ccc(F)c(F)c1C (relative stereo) [Compound 343D]
7. COC(=O)C1=C(C2COC2)NC(c2nccs2)=NC1c1ccc(F)cc1Cl (racemic) [Compound 217]
8. CCOC(=O)C1=C(C2[C@H]3CN(S(C)(=O)=O)C[C@@H]23)NC(c2nccs2)=NC1c1ccc(F)cc1Cl (single isomer, unassigned) [Compound 41A]

1. 1.52
2. 0.54
3. 1.45
4. 1.38
5. 1.50
6. 1.38
7. 1.47
8. 1.06

====

System: HepG2.2.15 cells
Experiment: Cytotoxicity determination in HepG2.2.15 cells (CCK-8)
Assay type: cell-based
Settings: 6 days of compound treatment, CCK-8, highest concentration 100 μM
attribute.measured: log10 CC50 (log10 of the value in µM)
Please note: log10 values; quantity CC50; unit µM.

1. COC(=O)C1=C(C2CCC(NC(C)=O)C2)NC(c2nccs2)=NC1c1cccc(F)c1Cl (single isomer, unassigned) [Compound 62D] ... 1.88
2. CCOC(=O)C1=C(C2CCN(S(=O)(=O)C3CC(C)(C(=O)O)C3)CC2)NC(c2nccs2)=NC1c1ccc(F)cc1Br (single isomer, unassigned) [Compound 282D] ... 1.05
3. COC(=O)C1=C(C2CCN(S(=O)(=O)CC3(C)CCC(C(=O)O)CC3)CC2)NC(c2nccs2)=NC1c1ccc(F)cc1Cl (single isomer, unassigned) [Compound 450A] ... 1.11
4. COC(=O)C1=C([C@H]2CC[C@H](C(=O)OC)CC2)NC(c2nccs2)=NC1c1ccc(F)cc1Cl (stereo partly drawn) [Compound 18X] ... 1.45
5. CCOC(=O)C1=C(C2CCN(S(=O)(=O)C3CC(C)(C(=O)O)C3)CC2)NC(c2nccs2)=NC1c1ccc(F)c(F)c1Cl (stereo not drawn) [Compound 270B] ... 1.01
6. COC(=O)C1=C(C2CCNC(=O)C2)NC(c2nccs2)=NC1c1ccc(F)cc1Cl (single isomer, unassigned) [Compound 3C] ... 0.75
7. COC(=O)C1=C(C2COC(CO)C2)NC(c2nccs2)=NC1c1cccc(F)c1Cl (single isomer, unassigned) [Compound 219A] ... 1.55
8. COC(=O)C1=C(C2C[C@@H]3CN(S(C)(=O)=O)C[C@@H]3C2)NC(c2nccs2)=NC1c1ccc(F)cc1Cl (single isomer, unassigned) [Compound 176D] ... 1.04
9. COC(=O)C1=C(C2CCC(=O)N2)NC(c2nccs2)=NC1c1cccc(F)c1Cl (single isomer, unassigned) [Compound 75A] ... 1.51
10. COC(=O)C1=C(C2CCN(S(=O)(=O)[C@H]3C[C@H](C(=O)O)C3)CC2)NC(c2nccs2)=NC1c1ccc(F)c(F)c1Cl (single isomer, unassigned) [Compound 232X] ... 1.85

Could you tell me log10 CC50 for each of these compounds? They are listed below.
1. COC(=O)C1=C(C2CCN(S(N)(=O)=O)CC2)NC(c2nccs2)=NC1c1ccc(F)c(F)c1Cl (stereo not drawn) [Compound 416B]
2. COC(=O)C1=C(C2CCN(S(=O)(=O)C3CC(C)(C(=O)O)C3)CC2)NC(c2nccs2)=NC1c1ccc(F)cc1Br (single isomer, unassigned) [Compound 410D]
3. COC(=O)C1=C(C2CCN(C)C(=O)C2)NC(c2nccs2)=NC1c1ccc(F)cc1Cl (single isomer, unassigned) [Compound 1B]

[1.13, 1.37, 1.13]

Could you tell me log10 CC50 for each of these compounds? They are listed below.
1. COC(=O)C1=C(C2CCC(NC(C)=O)C2)NC(c2nccs2)=NC1c1ccc(F)c(F)c1Cl (single isomer, unassigned) [Compound 300D]
2. CCOC(=O)C1=C(C2CCN(S(=O)(=O)C3CC(C)(C(=O)O)C3)CC2)NC(c2nccs2)=NC1c1cccc(F)c1Br (single isomer, unassigned) [Compound 414D]
3. COC(=O)C1=C(C2CCCC(C(=O)O)CC2)NC(c2nccs2)=NC1c1ccc(F)cc1Cl (single isomer, unassigned) [Compound 95C]
4. CCOC(=O)C1=C(C2CCN(S(=O)(=O)C3CC(C)(C(=O)O)C3)CC2)NC(c2nccs2)=NC1c1ccc(F)cc1Cl (stereo not drawn) [Compound 272A]
5. CCOC(=O)C1=C(C2CCN(S(=O)(=O)C3CC(C)(C(=O)O)C3)CC2)NC(c2nccs2)=NC1c1cccc(F)c1Br (single isomer, unassigned) [Compound 414C]
6. COC(=O)C1=C(C2CCC(NS(C)(=O)=O)C2)NC(c2nccs2)=NC1c1cccc(F)c1Cl (single isomer, unassigned) [Compound 61D]
7. CCOC(=O)C1=C(C2CCN(S(=O)(=O)[C@H]3C[C@](C)(C(=O)O)C3)CC2)NC(c2nccs2)=NC1c1ccc(F)c(F)c1Cl (stereo partly drawn) [Compound 270A]
8. CCOC(=O)C1=C(C2CCN(S(=O)(=O)C3CC(C)(C(=O)O)C3)CC2)NC(c2nccs2)=NC1c1ccc(F)cc1Br (single isomer, unassigned) [Compound 282C]

[1.10, 1.21, 1.52, 1.22, 1.24, 1.52, 0.96, 1.20]

Could you tell me log10 CC50 for each of these compounds? They are listed below.
1. COC(=O)C1=C(C2CCOC2)NC(c2nccs2)=NC1c1cccc(F)c1Cl (single isomer, unassigned) [Compound 74C]
2. COC(=O)C1=C(C2CCN(C)C(=O)C2)NC(c2nccs2)=NC1c1ccc(F)cc1Cl (single isomer, unassigned) [Compound 1A]

1.94
1.96
